Target: T1, K48-linked diubiquitin (human, UniProt P0CG48 1-76, isopeptide bond between Lys48 of one ubiquitin and the C-terminal Gly of the other)
T1 construct: Boston Biochem
Assay: SPR Biacore, antigen immobilized
Parameter: kon (M⁻¹ s⁻¹)
Note: unit M⁻¹ s⁻¹ is implicit; provide only the numeric part.

Form field kon, entry Fab apu13 (Fab, V domains shown) VH: EVQLVESGGGLVQPGGSLRLSCAASGFNVSYYSIHWVRQAPGKGLEWVASIYPYYSYTSYADSVKGRFTISADTSKNTAYLQMNSLRAEDTAVYYCARSYSYSYGLDYWGQGTLVTVSS VL: DIQMTQSPSSLSASVGDRVTITCRASQSVSSAVAWYQQKPGKAPKLLIYSASSLYSGVPSRFSGSRSGTDFTLTISSLQPEDFATYYCQQYSSSYYPFTFGQGTKVEIK : 115000
